- testSystem: Urease (Canavalia ensiformis)
- Sequence (P07374 whole entry): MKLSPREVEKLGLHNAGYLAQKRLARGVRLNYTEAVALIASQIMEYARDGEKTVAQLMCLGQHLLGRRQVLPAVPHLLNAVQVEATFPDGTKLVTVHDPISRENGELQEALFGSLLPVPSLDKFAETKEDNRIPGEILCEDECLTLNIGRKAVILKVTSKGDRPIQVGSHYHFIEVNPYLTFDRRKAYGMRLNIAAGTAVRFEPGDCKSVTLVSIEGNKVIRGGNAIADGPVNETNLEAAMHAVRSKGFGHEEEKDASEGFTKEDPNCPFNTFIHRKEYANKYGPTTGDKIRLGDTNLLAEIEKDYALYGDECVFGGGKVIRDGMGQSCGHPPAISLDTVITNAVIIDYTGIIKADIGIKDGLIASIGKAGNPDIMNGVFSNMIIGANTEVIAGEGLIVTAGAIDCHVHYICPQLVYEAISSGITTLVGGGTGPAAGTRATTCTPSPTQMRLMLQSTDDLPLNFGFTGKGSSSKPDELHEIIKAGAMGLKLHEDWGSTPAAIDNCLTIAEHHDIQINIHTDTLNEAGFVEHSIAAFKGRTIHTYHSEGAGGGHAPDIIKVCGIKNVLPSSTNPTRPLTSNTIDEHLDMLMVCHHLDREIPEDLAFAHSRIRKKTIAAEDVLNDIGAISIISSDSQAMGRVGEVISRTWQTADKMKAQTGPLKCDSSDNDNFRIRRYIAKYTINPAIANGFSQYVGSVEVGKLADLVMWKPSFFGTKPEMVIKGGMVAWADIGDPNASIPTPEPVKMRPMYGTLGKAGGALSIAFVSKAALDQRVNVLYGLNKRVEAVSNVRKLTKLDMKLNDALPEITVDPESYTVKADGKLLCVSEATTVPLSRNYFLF
- procedureText: Inhibition of Canavalia ensiformis (jack bean) urease assessed as inhibition of ammonia production after 15 min by indophenol method
- testContext: read-out: IC50
The following molecules are shown together with reported IC50 values.
quantityName: IC50 (µM)

[
  {
    "compoundString": "O=C1Nc2ccccc2/C1=N/NC(=S)Nc1cccc(F)c1",
    "reportedValue": 50.6
  },
  {
    "compoundString": "O=C1Nc2ccccc2/C1=N/NC(=S)Nc1ccc(OC(F)(F)F)cc1",
    "reportedValue": 20.6
  },
  {
    "compoundString": "O=C1Nc2ccc(F)cc2/C1=N/NC(=S)Nc1ccc(C(F)(F)F)cc1",
    "reportedValue": 90.4
  }
]

---

- testSystem: Urease (Canavalia ensiformis) (UniProt P07374)
- Sequence (P07374 whole entry, looked up): as the sequence (P07374 whole entry) above
- procedureText: Inhibition of Canavalia ensiformis (jack bean) urease assessed as inhibition of ammonia production at 500 uM after 15 min by indophenol method
quantityName: inhibition (%)

[
  {
    "compoundString": "O=C1Nc2ccc(F)cc2/C1=N/NC(=S)Nc1cccc(C(F)(F)F)c1",
    "quantityName": "inhibition",
    "unitsText": "%",
    "reportedValue": 92.6
  },
  {
    "compoundString": "O=C1Nc2ccc(F)cc2/C1=N/NC(=S)Nc1ccc(F)cc1F",
    "quantityName": "inhibition",
    "unitsText": "%",
    "reportedValue": 22.1
  },
  {
    "compoundString": "O=C1Nc2ccc(F)cc2/C1=N/NC(=S)Nc1ccc(OC(F)(F)F)cc1",
    "quantityName": "inhibition",
    "unitsText": "%",
    "reportedValue": 18.9
  },
  {
    "compoundString": "O=C1Nc2ccc(F)cc2/C1=N/NC(=S)Nc1ccccc1",
    "quantityName": "inhibition",
    "unitsText": "%",
    "reportedValue": 53
  }
]

---

- Tested on: Aspergillus flavus
- procedureText: Growth inhibition of Aspergillus flavus at 200 ug/ml after 7 days
- Type: functional
- testContext: 168 h
quantityName: inhibition at 200 µg/mL (%)

[
  {
    "compoundString": "O=C1Nc2ccc(F)cc2/C1=N/NC(=S)Nc1cc(F)cc(F)c1",
    "reportedValue": 0
  },
  {
    "compoundString": "O=C1Nc2ccc(F)cc2/C1=N/NC(=S)Nc1cccc(C(F)(F)F)c1",
    "reportedValue": 30
  },
  {
    "compoundString": "O=C1Nc2ccc(F)cc2/C1=N/NC(=S)Nc1ccc(F)cc1",
    "reportedValue": 0
  },
  {
    "compoundString": "O=C1Nc2ccc(F)cc2/C1=N/NC(=S)Nc1ccccc1C(F)(F)F",
    "reportedValue": 15
  },
  {
    "compoundString": "O=C1Nc2ccc(F)cc2/C1=N/NC(=S)Nc1cccc(F)c1",
    "reportedValue": 10
  },
  {
    "compoundString": "O=C1Nc2ccc(F)cc2/C1=N/NC(=S)Nc1ccccc1F",
    "reportedValue": 0
  },
  {
    "compoundString": "O=C1Nc2ccc(F)cc2/C1=N/NC(=S)Nc1ccccc1",
    "reportedValue": 0
  },
  {
    "compoundString": "O=C1Nc2ccc(F)cc2/C1=N/NC(=S)Nc1ccc(OC(F)(F)F)cc1",
    "reportedValue": 10
  }
]

---

- System: Lemna aequinoctialis
- procedureText: Phytotoxicity against Lemna aequinoctialis assessed as growth inhibition at 500 ug/ml after 7 days relative to control
- Assay type: functional
- testContext: 168 h, read-out: GI
# reported inhibition of growth at 500 µg/mL; entries follow

[
  {
    "compoundString": "O=C1Nc2ccc(F)cc2/C1=N/NC(=S)Nc1ccc(Br)cc1F",
    "inhibition of growth at 500 µg/mL [%]": 30
  },
  {
    "compoundString": "O=C1Nc2ccc(F)cc2/C1=N/NC(=S)Nc1cc(F)cc(F)c1",
    "inhibition of growth at 500 µg/mL [%]": 15
  },
  {
    "compoundString": "O=C1Nc2ccc(F)cc2/C1=N/NC(=S)Nc1ccccc1C(F)(F)F",
    "inhibition of growth at 500 µg/mL [%]": 25
  },
  {
    "compoundString": "O=C1Nc2ccc(F)cc2/C1=N/NC(=S)Nc1ccc(F)cc1F",
    "inhibition of growth at 500 µg/mL [%]": 30
  },
  {
    "compoundString": "O=C1Nc2ccc(F)cc2/C1=N/NC(=S)Nc1ccccc1",
    "inhibition of growth at 500 µg/mL [%]": 70
  },
  {
    "compoundString": "O=C1Nc2ccc(F)cc2/C1=N/NC(=S)Nc1ccc(C(F)(F)F)cc1",
    "inhibition of growth at 500 µg/mL [%]": 25
  },
  {
    "compoundString": "O=C1Nc2ccc(F)cc2/C1=N/NC(=S)Nc1cccc(C(F)(F)F)c1",
    "inhibition of growth at 500 µg/mL [%]": 30
  }
]
